- experimental.system: Sphingosine 1-phosphate receptor 5 (Homo sapiens)
- Sequence (Q9H228 whole entry): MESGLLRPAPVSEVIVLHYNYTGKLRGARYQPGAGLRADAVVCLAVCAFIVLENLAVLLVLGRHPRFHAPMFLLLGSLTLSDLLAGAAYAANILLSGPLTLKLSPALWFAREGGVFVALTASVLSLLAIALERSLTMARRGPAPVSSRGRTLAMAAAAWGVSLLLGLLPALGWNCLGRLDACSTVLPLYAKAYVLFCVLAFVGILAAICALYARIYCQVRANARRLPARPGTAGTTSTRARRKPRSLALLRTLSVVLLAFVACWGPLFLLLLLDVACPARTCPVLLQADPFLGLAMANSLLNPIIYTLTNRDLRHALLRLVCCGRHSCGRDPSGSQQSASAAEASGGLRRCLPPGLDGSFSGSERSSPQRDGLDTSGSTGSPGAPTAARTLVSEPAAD
- assay.method.text: Effective concentration against sphingosine 1-phosphate receptor 5 determined by a [c-35S]-GTP binding assay
// assign YES if EC50 falls strictly below 30 nM, else NO (ties count as NO)

**Query** Please let me know if CCCCCCCCc1ccc(-c2c[nH]c(C(C)(N)COP(=O)(O)O)n2)cc1 (centres undefined) shows EC50 below 30 nM.
**Result** YES

**Query** Please let me know if CCCCCCCCc1ccc(-c2c[nH]c(C(C)(N)COP(O)(O)=S)n2)cc1 (centres undefined) shows EC50 below 30 nM.
**Result** NO

**Query** Please let me know if `CCCCCCCCc1ccc(-c2c[nH]c([C@@H](N)COP(=O)(O)O)n2)cc1` shows EC50 below 30 nM.
**Result** YES

**Query** Please let me know if `CCCCCCCCc1ccc(-c2c[nH]c([C@H](N)COP(=O)(O)O)n2)cc1` shows EC50 below 30 nM.
**Result** NO

**Query** Please let me know if `CCCCCCCCc1ccc(-c2c[nH]c([C@H](N)CO)n2)cc1` shows EC50 below 30 nM.
**Result** NO

**Query** Please let me know if CCCCCCCCc1ccc(-c2c[nH]c(C(N)(CO)COP(=O)(O)O)n2)cc1 (centres undefined) shows EC50 below 30 nM.
**Result** YES

**Query** Please let me know if `CCCCCCCCc1ccc(-c2c[nH]c([C@@H](N)COP(O)(O)=S)n2)cc1` shows EC50 below 30 nM.
**Result** YES

**Query** Please let me know if `CCCCCCCCc1ccc(-c2c[nH]c(C(N)(CO)CO)n2)cc1` shows EC50 below 30 nM.
**Result** NO

**Query** Please let me know if CCCCCCCCc1ccc(-c2c[nH]c(C(N)(CO)COP(O)(O)=S)n2)cc1 (centres undefined) shows EC50 below 30 nM.
**Result** YES

----------
- experimental.system: Sphingosine 1-phosphate receptor 1 (Homo sapiens)
- Sequence (P21453 whole entry): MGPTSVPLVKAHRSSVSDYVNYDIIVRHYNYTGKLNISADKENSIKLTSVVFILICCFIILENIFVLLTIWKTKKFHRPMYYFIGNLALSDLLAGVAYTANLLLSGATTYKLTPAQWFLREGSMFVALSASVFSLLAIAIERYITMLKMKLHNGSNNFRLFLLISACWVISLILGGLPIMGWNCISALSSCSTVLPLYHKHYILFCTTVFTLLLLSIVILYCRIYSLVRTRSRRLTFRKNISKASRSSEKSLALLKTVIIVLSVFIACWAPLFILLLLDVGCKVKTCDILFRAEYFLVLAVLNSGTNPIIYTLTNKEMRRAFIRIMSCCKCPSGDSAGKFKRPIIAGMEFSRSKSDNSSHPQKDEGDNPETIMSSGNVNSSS
- assay.method.text: Maximal efficacy against sphingosine-1-phosphate receptor 1 determined by a [c-35S]-GTP binding assay
endpoint: Emax
Field format: numeric only.

**Query** Look up Sphingosine 1-phosphate receptor 1 (Homo sapiens) data: Emax of CCCCCCCCc1ccc(-c2c[nH]c(C(C)(N)COP(O)(O)=S)n2)cc1 (stereo not given) , then report it.
**Result** 0.87

**Query** Look up Sphingosine 1-phosphate receptor 1 (Homo sapiens) data: Emax of `CCCCCCCCc1ccc(-c2c[nH]c([C@H](N)CO)n2)cc1` , then report it.
**Result** 0.98

**Query** Look up Sphingosine 1-phosphate receptor 1 (Homo sapiens) data: Emax of `CCCCCCCCCCCCC/C=C/[C@@H](O)[C@@H](N)COP(=O)(O)O` , then report it.
**Result** 1

**Query** Look up Sphingosine 1-phosphate receptor 1 (Homo sapiens) data: Emax of CCCCCCCCc1ccc(-c2c[nH]c(C(N)(CO)COP(=O)(O)O)n2)cc1 (stereo not given) , then report it.
**Result** 0.91

**Query** Look up Sphingosine 1-phosphate receptor 1 (Homo sapiens) data: Emax of `CCCCCCCCc1ccc(-c2c[nH]c([C@@H](N)COP(O)(O)=S)n2)cc1` , then report it.
**Result** 0.67

----------
- experimental.system: Sphingosine 1-phosphate receptor 4 (Homo sapiens) (UniProt O95977)
- Sequence (O95977 whole entry): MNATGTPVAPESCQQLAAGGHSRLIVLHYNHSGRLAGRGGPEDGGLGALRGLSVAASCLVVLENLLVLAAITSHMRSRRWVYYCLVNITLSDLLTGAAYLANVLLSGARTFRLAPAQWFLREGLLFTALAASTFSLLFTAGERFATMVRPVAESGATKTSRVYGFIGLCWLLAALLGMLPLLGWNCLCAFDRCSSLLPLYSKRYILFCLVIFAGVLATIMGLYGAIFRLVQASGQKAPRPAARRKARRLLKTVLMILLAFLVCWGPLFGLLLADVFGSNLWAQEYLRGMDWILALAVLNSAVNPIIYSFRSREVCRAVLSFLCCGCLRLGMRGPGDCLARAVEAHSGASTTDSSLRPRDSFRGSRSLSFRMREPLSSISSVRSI
- assay.method.text: Maximal efficacy against sphingosine 1-phosphate receptor 4 determined by a [c-35S]-GTP binding assay
Threshold check on Emax: at or above 0.9 gives Criterion met, strictly below gives Criterion not met.

**Query** Decide: Emax of `CCCCCCCCc1ccc(-c2c[nH]c([C@@H](N)COP(O)(O)=S)n2)cc1` >= 0.9?
**Result** Criterion not met

**Query** Decide: Emax of `CCCCCCCCc1ccc(-c2c[nH]c(C(N)(CO)CO)n2)cc1` >= 0.9?
**Result** Criterion not met

**Query** Decide: Emax of `CCCCCCCCCCCCC/C=C/[C@@H](O)[C@@H](N)COP(=O)(O)O` >= 0.9?
**Result** Criterion met

**Query** Decide: Emax of `CCCCCCCCc1ccc(-c2c[nH]c([C@H](N)COP(=O)(O)O)n2)cc1` >= 0.9?
**Result** Criterion met

**Query** Decide: Emax of CCCCCCCCc1ccc(-c2c[nH]c(C(N)(CO)COP(O)(O)=S)n2)cc1 (stereo unspecified) >= 0.9?
**Result** Criterion not met

**Query** Decide: Emax of CCCCCCCCc1ccc(-c2c[nH]c(C(C)(N)COP(=O)(O)O)n2)cc1 (stereo unspecified) >= 0.9?
**Result** Criterion met

**Query** Decide: Emax of `CCCCCCCCc1ccc(-c2c[nH]c([C@@H](N)COP(=O)(O)O)n2)cc1` >= 0.9?
**Result** Criterion not met

**Query** Decide: Emax of CCCCCCCCc1ccc(-c2c[nH]c(C(N)(CO)COP(=O)(O)O)n2)cc1 (stereo unspecified) >= 0.9?
**Result** Criterion not met

**Query** Decide: Emax of CCCCCCCCc1ccc(CCC(N)(CO)COP(=O)(O)O)cc1 (stereo unspecified) >= 0.9?
**Result** Criterion not met

**Query** Decide: Emax of CCCCCCCCc1ccc(-c2c[nH]c(C(C)(N)COP(O)(O)=S)n2)cc1 (stereo unspecified) >= 0.9?
**Result** Criterion not met

----------
- experimental.system: Sphingosine 1-phosphate receptor 5 (Homo sapiens)
- assay.method.text: Maximal efficacy against sphingosine 1-phosphate receptor 5 determined by a [c-35S]-GTP binding assay
Task for the reader: assign each of the following compounds its reported Emax.
Field format: numeric only.

**Query** Look up Sphingosine 1-phosphate receptor 5 (Homo sapiens) data: Emax of `CCCCCCCCCCCCC/C=C/[C@@H](O)[C@@H](N)COP(=O)(O)O` , then report it.
**Result** 1

**Query** Look up Sphingosine 1-phosphate receptor 5 (Homo sapiens) data: Emax of CCCCCCCCc1ccc(-c2c[nH]c(C(C)(N)CO)n2)cc1 (configuration not stated) , then report it.
**Result** 0

**Query** Look up Sphingosine 1-phosphate receptor 5 (Homo sapiens) data: Emax of `CCCCCCCCc1ccc(-c2c[nH]c(C(N)(CO)CO)n2)cc1` , then report it.
**Result** 0.48

**Query** Look up Sphingosine 1-phosphate receptor 5 (Homo sapiens) data: Emax of CCCCCCCCc1ccc(-c2c[nH]c(C(C)(N)COP(=O)(O)O)n2)cc1 (configuration not stated) , then report it.
**Result** 0.72

**Query** Look up Sphingosine 1-phosphate receptor 5 (Homo sapiens) data: Emax of CCCCCCCCc1ccc(CCC(N)(CO)COP(=O)(O)O)cc1 (configuration not stated) , then report it.
**Result** 0.56

**Query** Look up Sphingosine 1-phosphate receptor 5 (Homo sapiens) data: Emax of CCCCCCCCc1ccc(-c2c[nH]c(C(N)(CO)COP(=O)(O)O)n2)cc1 (configuration not stated) , then report it.
**Result** 0.66

**Query** Look up Sphingosine 1-phosphate receptor 5 (Homo sapiens) data: Emax of `CCCCCCCCc1ccc(-c2c[nH]c([C@@H](N)COP(O)(O)=S)n2)cc1` , then report it.
**Result** 0.82

**Query** Look up Sphingosine 1-phosphate receptor 5 (Homo sapiens) data: Emax of CCCCCCCCc1ccc(-c2c[nH]c(C(N)(CO)COP(O)(O)=S)n2)cc1 (configuration not stated) , then report it.
**Result** 0.56

**Query** Look up Sphingosine 1-phosphate receptor 5 (Homo sapiens) data: Emax of `CCCCCCCCc1ccc(-c2c[nH]c([C@H](N)CO)n2)cc1` , then report it.
**Result** 0.83

**Query** Look up Sphingosine 1-phosphate receptor 5 (Homo sapiens) data: Emax of `CCCCCCCCc1ccc(-c2c[nH]c([C@@H](N)COP(=O)(O)O)n2)cc1` , then report it.
**Result** 0.69

**Query** Look up Sphingosine 1-phosphate receptor 5 (Homo sapiens) data: Emax of `CCCCCCCCc1ccc(-c2c[nH]c([C@H](N)COP(=O)(O)O)n2)cc1` , then report it.
**Result** 0.73

**Query** Look up Sphingosine 1-phosphate receptor 5 (Homo sapiens) data: Emax of CCCCCCCCc1ccc(-c2c[nH]c(C(C)(N)COP(O)(O)=S)n2)cc1 (configuration not stated) , then report it.
**Result** 0.6

----------
- experimental.system: UniProt:O95136
- Sequence (O95136 whole entry): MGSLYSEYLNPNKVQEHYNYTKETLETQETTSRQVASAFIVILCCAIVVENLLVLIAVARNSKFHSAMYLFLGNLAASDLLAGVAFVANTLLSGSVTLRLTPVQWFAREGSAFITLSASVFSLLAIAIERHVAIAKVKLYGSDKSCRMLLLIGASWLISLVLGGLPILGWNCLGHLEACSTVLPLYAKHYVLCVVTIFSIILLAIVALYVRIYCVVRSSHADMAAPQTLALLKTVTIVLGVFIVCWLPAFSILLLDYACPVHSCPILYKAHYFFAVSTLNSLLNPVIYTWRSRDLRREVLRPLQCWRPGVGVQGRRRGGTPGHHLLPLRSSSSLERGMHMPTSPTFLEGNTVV
- assay.method.text: Effective concentration against sphingosine 1-phosphate receptor 2 determined by a [c-35S]-GTP binding assay
endpoint: pEC50
Keep in mind that pEC50 stands for -log10 of concentration in molar terms.

**Query** Look up UniProt:O95136 data: pEC50 of CCCCCCCCc1ccc(-c2c[nH]c(C(N)(CO)COP(=O)(O)O)n2)cc1 (stereo unspecified) , then report it.
**Result** 7.74

These data points were gathered from ChEMBL document CHEMBL1140276.
